Here the recorded Fold change (Median) is given for each entry.
- Test system: GSC7 cells
- assayMethodText: Nano-Glo Dual-Luciferase Reporter (Nanoglo DLR) assay of enhancer activity, fold change to mCMV
- Type: cell-based, human
- setupConditions: expression fold change of the individual enhancer compared to mCMV
Numbers only; they are read as fold.

Illustrative cases are given below, each with its answer.
ID2816: enhancer fragment, SEQ ID NO: 31 (nucleic acid) DNA: TTCCTGCATCTGGCCCTCTTTGAGAGCCCCTTGTGTGCCAATGACAAACCCTTCTTTATTTAAGCTCCTCTGAAGTGCCTTCCTGGTCTTGGCAGCTGGACAGGGCCCTGAATAAGACAGCGAGCCTCAATGGCAGGCTACCCCAGGGCTGGGTGACGTA	25.1
ID0291: enhancer fragment, SEQ ID NO: 24 (nucleic acid) DNA: CATTCTTTGCAGATAGGAAACAGTTTGCTATCTGAGAGACTGGCCAAAAACCTTACTTTCAAGTAAAATAGGGCTCTATTCATAAGCTCCTACATGTACACAAGTTACTCTTTATACTCCTTTCAGACAATGATAAGAATAGAAACTATTTAATTCAGGA	29.0
ID0403-1: enhancer fragment, SEQ ID NO: 32 (nucleic acid) DNA: TGCCTCTCTTCCATTGGCATTGGAGTGGCTATAGGCCTTTGGAGGACCTGGCAAAGGGGAAGTTGATTTAGGGGTTCATTGAATTGAGGGGAAGTATGTAAGTGGTTTGCAGTCACTTCCTTGTGTGGTACTCTTGTATAGTAATGATTTCCTGGAATA	24.9
ID4428: enhancer fragment, SEQ ID NO: 18 (nucleic acid) DNA: TCTAAATGGAGATCCTCCCATAAAGGGAGTTCTGTTTGGGCTTCCCTTGGAAGTCCATTGAAAGCGTTTCACATTTCAATGCTTCTTTACATTCTCCTCTAGAATGAATCTGGAAGGGCCATTTCATTCCAGCCCTATCAGATTTACTACTTCCTCCTGT	36.2
ID4035: enhancer fragment, SEQ ID NO: 29 (nucleic acid) DNA: CCCAGACTGCCATCTCCACGGCCCCCACACCAGCACACAGATGCCTCATTCACGTGGTGCTCCCAGGGCCTGGCACCAGTTCTGAGGCTTAAAATAGGCACACAACGGGCCTTTGTCGGATAGAGGAAGGAAGGAAGGAGCGTTTCAGACAAAGGAGACA	26.2

Qu. Give its Fold change (Median) value. Item: ID1101: enhancer fragment, SEQ ID NO: 4 (nucleic acid) DNA: GTGAGTGTGACTCACATGCTGGCATCAGAGCCCCTCTTAGAGCTTAGAACACTGGGCCTCTGTCAGGCAAAGAAAAGGAGTCCCTATGAATAGCCATCTCCACAAATAGCAGTTACTGTCACTTCTTAAAAGACACAAGCATGGCTGGAGACCGGCACTG
Ans. 258.8
